Values from the array DNA melting data of Ke et al. (doi:10.1101/2024.01.08.574731)

Assay: melting temperature; fluorescence melt of hairpins on a sequencing array, two-state fit, raised by 9.35 °C to match UV melts
Conditions: sodium 0.088 M
So I've got a bunch of sequences here, and I need their Tm values.
Give a bare numeral; the unit °C is implied.

// lookup Tm for GCTCAGGCGAAAGCCAGC (((..(((....))))))
42.8

// lookup Tm for GCCCGGCGAAAGCCGGC (((.(((....))))))
65.7

// lookup Tm for GCTCCGCGAAAGCCAAGC (((..((....))..)))
26.1

// lookup Tm for GTCTCTACGAAAGTAGAC (((..(((....))))))
33.2

// lookup Tm for GAACGTGAAAACGTTC ((((((....))))))
58.1

// lookup Tm for GACACCGAAAGGTGAGTC ((((((....)))..)))
37.3

---

Assay: melting temperature; fluorescence melt of hairpins on a sequencing array, two-state fit, raised by 9.35 °C to match UV melts
Conditions: sodium 0.088 M
Please assign a class to every record based on measured Tm, with ranges low (below 40 °C), moderate (40 °C to below 50 °C), high (50 °C or more)

Class for GCCGCGCGAAAGCTCAGC ((.(.((....)).).)) ?
low

Class for GATCCCTGGAGGGATC ((((((....)))))) ?
high

Class for GATCCTAGCAGGATC ((((((...)))))) ?
high

Class for GATCATACTATGATC ((((((...)))))) ?
moderate

Class for GGTCGTGGAAACGCGATC (.(((.(....).))).) ?
moderate

Class for GCTGGAGGAAACTTCGGC ((.(.((....)).).)) ?
low

Class for GCGTCTCGACGC ((((....)))) ?
high

Class for GTATAGGCGAAAGCCTAC (((..(((....)))))) ?
low

Class for GCATCAGGAAACTAATGC ((((.((....)).)))) ?
low

Class for GTTACCGGAAACGGCAAC (((.(((....))).))) ?
moderate

Class for GCTCCATCGAAAGATAGC (((..(((....)))))) ?
low

Class for GGGTCCGAAAGGACACCC ((((((....)))..))) ?
high

Class for CGGGCGGAAACGCCGCCG ((((((....)))..))) ?
moderate

Class for GTCAGCGGAAACGTTGAC ((((.((....)).)))) ?
high

Class for GTCCTCGAAAGAGAAGAC ((((((....)))..))) ?
low

Class for GCGGGACCCCGC ((((....)))) ?
high

Class for GTGGCTGGAAACAGTCGC (.(.(((....))).).) ?
moderate

---

Experiment: folding enthalpy; higher = less favourable; fluorescence melt of hairpins on a sequencing array, two-state fit
Settings: sodium 0.088 M
Measurement name: folding enthalpy (kcal/mol)
Give a bare numeral; the unit kcal/mol is implied.

// lookup folding enthalpy for GGATTTCGAAAGAACTCC (((.(((....))).)))
-29.4

// lookup folding enthalpy for GTGCTCGAAAGAGTTCAC ((((((....)))..)))
-13.6

// lookup folding enthalpy for GCGTTGCGAAAGCATAGC ((..(((....)))..))
-26.5

// lookup folding enthalpy for GCTCTGCGAAAGCAAGGC ((..(((....)))..))
-17.7

// lookup folding enthalpy for GTATCGGGAAACCGGTAC (((.(((....))).)))
-32

// lookup folding enthalpy for GATCTTTCGCAAGATC ((((((....))))))
-32.4

// lookup folding enthalpy for GGGTTCGGAAACGGACTC (.((.((....)).)).)
-25.9

// lookup folding enthalpy for GTCCCCCGAAAGGGGAC (((.(((....))))))
-19.9

// lookup folding enthalpy for GCAGCTCGAAAGAGTGC (((.(((....))))))
-30

// lookup folding enthalpy for GATCGGACGGCCGATC ((((((....))))))
-45.5

// lookup folding enthalpy for GCGGATACGAAAGTACGC (((..(((....))))))
-27

// lookup folding enthalpy for GGATACCCGAAAGGGTCC (((..(((....))))))
-10.4

---

Experiment: folding enthalpy; higher = less favourable; fluorescence melt of hairpins on a sequencing array, two-state fit
Details: sodium 0.088 M
Answer not satisfied if folding enthalpy is under -20 kcal/mol, and satisfied if it is -20 kcal/mol or more.

Reported folding enthalpy at or above -20 kcal/mol? GTGGACACGAAAGTGCAC (((..(((....))))))
satisfied

Reported folding enthalpy at or above -20 kcal/mol? CGGACGGAAACGTTACCG ((((((....)))..)))
not satisfied

Reported folding enthalpy at or above -20 kcal/mol? GGCGCAGGAAACTGTGCC (((.(((....))).)))
not satisfied

Reported folding enthalpy at or above -20 kcal/mol? GCGCTCGAAAGAGAACGC ((((((....)))..)))
not satisfied

Reported folding enthalpy at or above -20 kcal/mol? GCTCCGCGAAAGCCAAGC (((..((....))..)))
satisfied

---

Test: folding enthalpy; higher = less favourable; fluorescence melt of hairpins on a sequencing array, two-state fit
Conditions: sodium 0.088 M
Answer f if folding enthalpy is under -20 kcal/mol, and t if it is -20 kcal/mol or more.

Reported folding enthalpy at or above -20 kcal/mol? GATCTCAGAAGAGATC ((((((....))))))
f

Reported folding enthalpy at or above -20 kcal/mol? GTATAGAAATATAC (((((....)))))
t

Reported folding enthalpy at or above -20 kcal/mol? GTTACCGGAAACGGTAGC (.(((((....))))).)
t

Reported folding enthalpy at or above -20 kcal/mol? GTACTCCCGAAAGGGTAC (((..(((....))))))
t

Reported folding enthalpy at or above -20 kcal/mol? GACCGAGGAAACTCGATC ((.((((....)))).))
f

Reported folding enthalpy at or above -20 kcal/mol? GATCTATATCTAGATC ((((((....))))))
f

Reported folding enthalpy at or above -20 kcal/mol? GATCCGTTATCGGATC ((((((....))))))
f

Reported folding enthalpy at or above -20 kcal/mol? GACACAGGAAACTACGTC (((..((....))..)))
t

Reported folding enthalpy at or above -20 kcal/mol? GGAGTCGGAAACGGCTTC (.((.((....)).)).)
f

Reported folding enthalpy at or above -20 kcal/mol? GCGCAGCGAAAGCTAAGC ((..(((....)))..))
t

Reported folding enthalpy at or above -20 kcal/mol? GAATTGACGAAAGTCTTC (((..(((....))))))
t

Reported folding enthalpy at or above -20 kcal/mol? GTAGTGGAAACACTAC ((((((....))))))
f

---

Assay: melting temperature; fluorescence melt of hairpins on a sequencing array, two-state fit, raised by 9.35 °C to match UV melts
Details: sodium 0.088 M
Measurement name: Tm (°C)
Give a bare numeral; the unit °C is implied.

// lookup Tm for CGGACGGAAACGTGCCCG ((((((....)))..)))
35.9

// lookup Tm for GCTTGGGGAAACTCAAGC (((((.(....).)))))
51.3

// lookup Tm for GATCTCGACTGAGATC ((((((....))))))
55.8

// lookup Tm for GCGCCCGGAAACGGACGC (((.(((....))).)))
66.1

// lookup Tm for GCGGACACCCGC ((((....))))
53.5

// lookup Tm for GTGGTACGAAAGTAGCAC (((.(((....))).)))
63.2

// lookup Tm for GAGGAAGGAAACTTCTTC ((.((((....)))).))
33.9

// lookup Tm for GAATGCGAAAGCATTTC ((((((....))).)))
50.2

// lookup Tm for GCTTCGCGAAAGCCATGC ((.(.((....)).).))
34.6

// lookup Tm for GCGGGCGAAAGCCGTCGC ((((((....)))..)))
54.5

// lookup Tm for GTCGTACGAAAGTAAGAC (((.(((....))).)))
52.1

// lookup Tm for GCACGCGAAAGCGCCTGC ((((((....)))..)))
37.1

// lookup Tm for GGGTATGCGAAAGCACCC (((..(((....))))))
50.4

// lookup Tm for GTGTGTGGAAACACATAC ((.((((....)))).))
50

// lookup Tm for GATCACGCCCGTGATC ((((((....))))))
60.6

// lookup Tm for GATCTTACAAAGATC ((((((...))))))
44.4

// lookup Tm for GCTCTACGAAAGTATAGC (((.(((....))).)))
42.5

// lookup Tm for GTCCCCCGAAAGGGGAC (((.(((....))))))
67.2

// lookup Tm for GTGAGCGAAAGCTACCAC ((((((....)))..)))
35.9

// lookup Tm for CGGAACGGAAACGTACCG (((.(((....))).)))
49.7

// lookup Tm for GCTCCGCGAAAGCGTGGC ((..(((....)))..))
50.1

// lookup Tm for GTTCTTGGAAACAAGAAC (((((((....)))))))
55.5

// lookup Tm for CGCCGCGGAAACGCAGCG (((.(((....))).)))
59

// lookup Tm for GTCGTTGGAAACAATGAC (((.(((....))).)))
48.3

// lookup Tm for GTCTGACGAAAGTCCGAC (((.(((....))).)))
49
